Collected IC50 values appear next to each entry.
molecular target: HsSerRS (Homo sapiens); assay: biochemical

- structure: "C[C@@H](O)[C@H](N)C(=O)NS(=O)(=O)OC[C@H]1O[C@@H](n2cnc3c(N)ncnc32)[C@H](O)[C@@H]1O"
  measurement-target: "HsSerRS (Homo sapiens)"
  IC50: "> 1000 µM"
- structure: "C[C@H](N)C(=O)NS(=O)(=O)OC[C@H]1O[C@@H](n2cnc3c(N)ncnc32)[C@H](O)[C@@H]1O"
  measurement-target: "HsSerRS (Homo sapiens)"
  IC50: "> 1000 µM"

----------
Reported pIC50 by item:
target: EcSerRS (Escherichia coli, UniProt P0A8L1); assay: continuous coupled spectrophotometric assay of adenylate formation; type: biochemical; settings: pH 7.6, 37 °C, 10 mM MgCl2, 10% DMSO
Sequence (P0A8L1 whole entry): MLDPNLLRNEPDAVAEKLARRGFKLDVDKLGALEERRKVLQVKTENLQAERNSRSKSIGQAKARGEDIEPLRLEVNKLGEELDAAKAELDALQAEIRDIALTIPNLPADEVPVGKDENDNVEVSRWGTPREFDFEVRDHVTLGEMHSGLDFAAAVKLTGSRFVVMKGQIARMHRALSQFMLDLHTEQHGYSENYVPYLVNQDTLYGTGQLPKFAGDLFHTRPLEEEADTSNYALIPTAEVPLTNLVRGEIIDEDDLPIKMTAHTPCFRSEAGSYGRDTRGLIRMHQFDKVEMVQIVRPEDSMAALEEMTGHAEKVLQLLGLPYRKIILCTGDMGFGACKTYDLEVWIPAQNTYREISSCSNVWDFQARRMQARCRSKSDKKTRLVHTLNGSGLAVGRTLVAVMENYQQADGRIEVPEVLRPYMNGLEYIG
pIC50: −log10 of the molar value.
measured-quantity: pIC50

- structure: "Nc1nc(I)nc2c1ncn2[C@@H]1O[C@H](COS(=O)(=O)NC(=O)[C@@H](N)CO)[C@@H](O)[C@H]1O"
  measurement-target: "EcSerRS (Escherichia coli, UniProt P0A8L1)"
  measured-quantity: "pIC50"
  reported-result: 5.87
- structure: "Nc1nc(-c2ccco2)nc2c1ncn2[C@@H]1O[C@H](COS(=O)(=O)NC(=O)[C@@H](N)CO)[C@@H](O)[C@H]1O"
  measurement-target: "EcSerRS (Escherichia coli, UniProt P0A8L1)"
  measured-quantity: "pIC50"
  reported-result: 4.44
- structure: "Nc1nc(-c2cccnc2)nc2c1ncn2[C@@H]1O[C@H](COS(=O)(=O)NC(=O)[C@@H](N)CO)[C@@H](O)[C@H]1O"
  measurement-target: "EcSerRS (Escherichia coli, UniProt P0A8L1)"
  measured-quantity: "pIC50"
  reported-result: 5.18
- structure: "Nc1nc(Cl)nc2c1ncn2[C@@H]1O[C@H](COS(=O)(=O)NC(=O)[C@@H](N)CO)[C@@H](O)[C@H]1O"
  measurement-target: "EcSerRS (Escherichia coli, UniProt P0A8L1)"
  measured-quantity: "pIC50"
  reported-result: 6.35
- structure: "Nc1nc(-c2ccccc2)nc2c1ncn2[C@@H]1O[C@H](COS(=O)(=O)NC(=O)[C@@H](N)CO)[C@@H](O)[C@H]1O"
  measurement-target: "EcSerRS (Escherichia coli, UniProt P0A8L1)"
  measured-quantity: "pIC50"
  reported-result: 4.75
- structure: "C/C=C/c1nc(N)c2ncn([C@@H]3O[C@H](COS(=O)(=O)NC(=O)[C@@H](N)CO)[C@@H](O)[C@H]3O)c2n1"
  measurement-target: "EcSerRS (Escherichia coli, UniProt P0A8L1)"
  measured-quantity: "pIC50"
  reported-result: 5.03
- structure: "Nc1ncnc2c1ncn2[C@@H]1O[C@H](COS(=O)(=O)NC(=O)[C@@H](N)CO)[C@@H](O)[C@H]1O"
  measurement-target: "EcSerRS (Escherichia coli, UniProt P0A8L1)"
  measured-quantity: "pIC50"
  reported-result: 6.68
- structure: "Nc1nc(-c2ccsc2)nc2c1ncn2[C@@H]1O[C@H](COS(=O)(=O)NC(=O)[C@@H](N)CO)[C@@H](O)[C@H]1O"
  measurement-target: "EcSerRS (Escherichia coli, UniProt P0A8L1)"
  measured-quantity: "pIC50"
  reported-result: 5.84

----------
molecular target: SaSerRS (Staphylococcus aureus, UniProt P95689); assay: continuous coupled spectrophotometric assay of adenylate formation; format: biochemical; settings: pH 7.6, 37 °C, 10 mM MgCl2, 10% DMSO
Sequence (P95689 whole entry): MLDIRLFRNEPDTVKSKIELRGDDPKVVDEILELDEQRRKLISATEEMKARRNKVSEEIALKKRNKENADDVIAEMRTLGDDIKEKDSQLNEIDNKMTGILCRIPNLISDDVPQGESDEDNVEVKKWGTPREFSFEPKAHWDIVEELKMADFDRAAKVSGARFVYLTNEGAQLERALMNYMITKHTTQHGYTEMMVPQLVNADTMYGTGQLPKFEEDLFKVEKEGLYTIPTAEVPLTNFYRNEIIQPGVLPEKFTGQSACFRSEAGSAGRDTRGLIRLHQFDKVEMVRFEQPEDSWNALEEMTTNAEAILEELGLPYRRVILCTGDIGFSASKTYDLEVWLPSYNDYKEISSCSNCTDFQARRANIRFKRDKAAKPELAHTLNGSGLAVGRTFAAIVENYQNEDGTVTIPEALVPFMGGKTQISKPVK
pIC50: −log10 of the molar value.

- molecule: "Nc1nc(-c2ccsc2)nc2c1ncn2[C@@H]1O[C@H](COS(=O)(=O)NC(=O)[C@@H](N)CO)[C@@H](O)[C@H]1O [compound 7]"
  measurement-target: "SaSerRS (Staphylococcus aureus, UniProt P95689)"
  pIC50: 5.91
- molecule: "Nc1nc(-c2cccnc2)nc2c1ncn2[C@@H]1O[C@H](COS(=O)(=O)NC(=O)[C@@H](N)CO)[C@@H](O)[C@H]1O [compound 8]"
  measurement-target: "SaSerRS (Staphylococcus aureus, UniProt P95689)"
  pIC50: 5.20
- molecule: "C/C=C/c1nc(N)c2ncn([C@@H]3O[C@H](COS(=O)(=O)NC(=O)[C@@H](N)CO)[C@@H](O)[C@H]3O)c2n1 [compound 5]"
  measurement-target: "SaSerRS (Staphylococcus aureus, UniProt P95689)"
  pIC50: 5.46
- molecule: "Nc1nc(-c2ccco2)nc2c1ncn2[C@@H]1O[C@H](COS(=O)(=O)NC(=O)[C@@H](N)CO)[C@@H](O)[C@H]1O [compound 6]"
  measurement-target: "SaSerRS (Staphylococcus aureus, UniProt P95689)"
  pIC50: 4.49
- molecule: "Nc1nc(-c2ccccc2)nc2c1ncn2[C@@H]1O[C@H](COS(=O)(=O)NC(=O)[C@@H](N)CO)[C@@H](O)[C@H]1O [compound 4]"
  measurement-target: "SaSerRS (Staphylococcus aureus, UniProt P95689)"
  pIC50: 4.28
- molecule: "Nc1nc(Cl)nc2c1ncn2[C@@H]1O[C@H](COS(=O)(=O)NC(=O)[C@@H](N)CO)[C@@H](O)[C@H]1O [compound 2]"
  measurement-target: "SaSerRS (Staphylococcus aureus, UniProt P95689)"
  pIC50: 6.59
- molecule: "Nc1nc(I)nc2c1ncn2[C@@H]1O[C@H](COS(=O)(=O)NC(=O)[C@@H](N)CO)[C@@H](O)[C@H]1O [compound 3]"
  measurement-target: "SaSerRS (Staphylococcus aureus, UniProt P95689)"
  pIC50: 6.42

----------
biological target: HsSerRS (Homo sapiens, UniProt P49591); assay type: biochemical
Sequence (P49591 whole entry, looked up): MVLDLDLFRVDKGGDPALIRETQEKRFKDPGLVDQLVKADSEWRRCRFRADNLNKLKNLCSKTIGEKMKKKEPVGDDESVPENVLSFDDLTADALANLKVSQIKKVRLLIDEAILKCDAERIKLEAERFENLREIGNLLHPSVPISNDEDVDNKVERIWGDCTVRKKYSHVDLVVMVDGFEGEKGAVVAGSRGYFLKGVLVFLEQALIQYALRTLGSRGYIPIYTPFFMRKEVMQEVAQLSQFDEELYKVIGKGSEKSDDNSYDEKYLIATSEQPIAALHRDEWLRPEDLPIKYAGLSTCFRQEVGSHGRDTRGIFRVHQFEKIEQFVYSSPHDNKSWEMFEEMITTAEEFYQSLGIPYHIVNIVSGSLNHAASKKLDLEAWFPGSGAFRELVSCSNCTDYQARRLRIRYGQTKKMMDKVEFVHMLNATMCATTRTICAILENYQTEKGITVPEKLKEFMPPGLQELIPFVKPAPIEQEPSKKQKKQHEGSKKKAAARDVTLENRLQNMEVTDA
pIC50: −log10 of the molar value.
measured-quantity: pIC50

- molecule: "Nc1ncnc2c1ncn2[C@@H]1O[C@H](COS(=O)(=O)NC(=O)[C@@H](N)CO)[C@@H](O)[C@H]1O [compound 1, SerSA]"
  measurement-target: "HsSerRS (Homo sapiens, UniProt P49591)"
  reported-result: 5.66

----------
molecular target: EcSerRS (Escherichia coli); assay: biochemical
pIC50: −log10 of the molar value.
measured-quantity: pIC50

- structure: "C[C@H](N)C(=O)NS(=O)(=O)OC[C@H]1O[C@@H](n2cnc3c(N)ncnc32)[C@H](O)[C@@H]1O"
  measurement-target: "EcSerRS (Escherichia coli)"
  measured-quantity: "pIC50"
  reported-result: "< 3.00"

----------
target: EcSerRS (Escherichia coli, UniProt P0A8L1); assay: continuous coupled spectrophotometric assay of adenylate formation; assay type: biochemical

- structure: "C[C@@H](O)[C@H](N)C(=O)NS(=O)(=O)OC[C@H]1O[C@@H](n2cnc3c(N)ncnc32)[C@H](O)[C@@H]1O"
  IC50, µM: 285

----------
molecular target: SaSerRS (Staphylococcus aureus, UniProt P95689); assay: continuous coupled spectrophotometric assay of adenylate formation; type: biochemical; conditions: pH 7.6, 37 °C, 10 mM MgCl2, 10% DMSO; error as printed is larger than the value
pIC50: −log10 of the molar value.
measured-quantity: pIC50

- compound: "Nc1ncnc2c1ncn2[C@@H]1O[C@H](COS(=O)(=O)NC(=O)[C@@H](N)CO)[C@@H](O)[C@H]1O [compound 1, SerSA]"
  reported-result: 6.64

----------
target: SaSerRS (Staphylococcus aureus); assay: biochemical
pIC50: −log10 of the molar value.

- structure: "C[C@H](N)C(=O)NS(=O)(=O)OC[C@H]1O[C@@H](n2cnc3c(N)ncnc32)[C@H](O)[C@@H]1O"
  pIC50: "< 3.00"
